This collection of values is drawn from patent US20220380409A1.

# target_or_system: GST-PvLDH (UniProt P84793 1-313)
# protocol_details: sandwich ELISA
Ends that are not written are not given here.
readout: EC50 (nM)
Write the number in nM without appending the unit.

Return reported EC50; argument: binary ligand hevwh-YLGHK (not fully specified (bridges)) peptide 1: HEVWH peptide 2: YLGHK
12
